Recorded log10(IC50), one value per entry.
target: PI3Kδ (Homo sapiens, UniProt O00329); construct: The protein is full length and co-expressed with untagged PIK3R1; GST; purchased Invitrogen PV5274; experiment: PI3Kδ inhibition, modified PIK3CD Adapta TR-FRET assay; type: biochemical; conditions: recombinant GST-tagged full length PIK3CD co-expressed with PIK3R1 (p85α); 2 μM ATP, 50 μM PIP2; read-out: PI3Kδ Inhibition (pIC50) (converted)
Sequence (O00329 whole entry): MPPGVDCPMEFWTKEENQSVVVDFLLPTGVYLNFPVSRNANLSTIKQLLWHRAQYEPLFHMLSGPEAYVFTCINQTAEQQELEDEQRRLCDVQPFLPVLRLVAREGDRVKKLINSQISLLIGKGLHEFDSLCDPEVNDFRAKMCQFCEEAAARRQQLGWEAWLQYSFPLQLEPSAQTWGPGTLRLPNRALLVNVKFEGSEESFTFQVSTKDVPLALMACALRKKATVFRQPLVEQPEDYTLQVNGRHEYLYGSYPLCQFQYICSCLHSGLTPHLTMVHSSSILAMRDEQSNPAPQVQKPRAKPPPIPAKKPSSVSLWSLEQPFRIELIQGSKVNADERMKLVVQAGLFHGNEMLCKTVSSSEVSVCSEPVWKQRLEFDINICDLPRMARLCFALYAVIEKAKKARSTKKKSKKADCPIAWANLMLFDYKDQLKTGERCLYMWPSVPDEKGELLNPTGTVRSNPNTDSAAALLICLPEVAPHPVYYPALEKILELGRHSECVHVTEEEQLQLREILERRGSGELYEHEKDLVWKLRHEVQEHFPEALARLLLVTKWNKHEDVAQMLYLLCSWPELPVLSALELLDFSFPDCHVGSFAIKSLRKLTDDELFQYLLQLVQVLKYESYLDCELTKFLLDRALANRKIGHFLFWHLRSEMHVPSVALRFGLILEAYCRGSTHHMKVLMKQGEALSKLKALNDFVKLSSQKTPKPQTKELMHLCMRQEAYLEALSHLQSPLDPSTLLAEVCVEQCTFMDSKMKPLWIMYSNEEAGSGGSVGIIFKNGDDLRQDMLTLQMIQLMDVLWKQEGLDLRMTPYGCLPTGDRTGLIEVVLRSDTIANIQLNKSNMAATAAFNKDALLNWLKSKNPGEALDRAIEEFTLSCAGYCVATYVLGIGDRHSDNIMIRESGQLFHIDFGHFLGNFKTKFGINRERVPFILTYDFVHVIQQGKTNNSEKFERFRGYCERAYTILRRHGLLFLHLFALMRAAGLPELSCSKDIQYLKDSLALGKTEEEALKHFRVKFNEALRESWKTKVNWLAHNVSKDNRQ
Sequence (P27986 whole entry partner): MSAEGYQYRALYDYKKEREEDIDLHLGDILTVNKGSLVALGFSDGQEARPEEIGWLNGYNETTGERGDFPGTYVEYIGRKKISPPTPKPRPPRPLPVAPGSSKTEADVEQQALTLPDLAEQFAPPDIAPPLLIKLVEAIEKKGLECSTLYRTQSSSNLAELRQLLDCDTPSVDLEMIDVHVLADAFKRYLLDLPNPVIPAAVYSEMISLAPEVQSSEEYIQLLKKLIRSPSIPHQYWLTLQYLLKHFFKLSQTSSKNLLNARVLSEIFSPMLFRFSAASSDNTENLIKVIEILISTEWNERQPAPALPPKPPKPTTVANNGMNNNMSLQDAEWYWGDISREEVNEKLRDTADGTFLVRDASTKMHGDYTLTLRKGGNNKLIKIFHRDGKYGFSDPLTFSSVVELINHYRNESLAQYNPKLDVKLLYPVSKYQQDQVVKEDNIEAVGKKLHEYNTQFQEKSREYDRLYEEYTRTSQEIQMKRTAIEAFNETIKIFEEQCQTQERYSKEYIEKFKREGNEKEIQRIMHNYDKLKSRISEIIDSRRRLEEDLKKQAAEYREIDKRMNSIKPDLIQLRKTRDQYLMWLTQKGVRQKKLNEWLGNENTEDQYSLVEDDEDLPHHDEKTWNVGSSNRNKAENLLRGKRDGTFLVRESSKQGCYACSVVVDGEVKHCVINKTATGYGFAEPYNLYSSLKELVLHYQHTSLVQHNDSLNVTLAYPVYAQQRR
// do not treat as linear: log10 of IC50, unit nM

These solved cases illustrate the format of a correct answer.
Compound	Measured
Cn1cc(NC(=O)CN2C[C@@H]3COCCN3c3nc(-c4cccc5[nH]ccc45)ncc32)cn1	1.70
CNC(=O)Nc1ccc(-c2ncc3c(n2)N2CCOCC2CN3Cc2ccc(Cl)cc2)cc1 (stereo not drawn)	3.40
O=C(CN1C[C@@H]2COCCN2c2nc(-c3cccc4[nH]ccc34)ncc21)NC1CC1	2.40
OC1CCC(N2C[C@@H]3COCCN3c3nc(-c4cccc5[nH]ccc45)ncc32)CC1 (stereo partly drawn)	0.90
N#Cc1cccc(-c2ncc3c(n2)N2CCOC[C@H]2CN3CC(=O)NCC2CCOCC2)c1	3.10
CNC(=O)Nc1ccc(-c2ncc3c(n2)N2CCOCC2CN3CC2CC2)cc1 (stereo not drawn)	1.60
Cc1ccccc1N1C[C@@H]2COCCN2c2nc(-c3cccc4[nH]ccc34)ncc21	2.10
CS(=O)(=O)c1ccc(CN2CC3COCCN3c3nc(-c4ccc(F)c5[nH]ccc45)ncc32)cc1 (stereo not drawn)	1.60
CCc1nnc(C(C)N2C[C@@H]3COCCN3c3nc(-c4cccc(CO)c4)ncc32)o1 (stereo partly drawn)	0.30
CS(=O)(=O)c1ccc(CN2C[C@H]3COCCN3c3nc(-c4cccc5[nH]ccc45)ncc32)cc1	2.80

In plain terms, Cn1nccc1-c1ncc2c(n1)N1CCOC[C@H]1CN2CC(=O)NCC1CCOCC1 has a documented log10(IC50) of 3.20

Entry under test: N[C@H]1CC[C@H](CN2CC3COCCN3c3nc(-c4cccc5[nH]ccc45)ncc32)CC1 (stereo partly drawn) . Its log10(IC50) was 2.70
